Target: full-length beta-Catenin (Uniprot ID P35222) (Homo sapiens)
Construct: 10 nM full-length beta-Catenin (Uniprot ID P35222)
Sequence (P35222 1-781): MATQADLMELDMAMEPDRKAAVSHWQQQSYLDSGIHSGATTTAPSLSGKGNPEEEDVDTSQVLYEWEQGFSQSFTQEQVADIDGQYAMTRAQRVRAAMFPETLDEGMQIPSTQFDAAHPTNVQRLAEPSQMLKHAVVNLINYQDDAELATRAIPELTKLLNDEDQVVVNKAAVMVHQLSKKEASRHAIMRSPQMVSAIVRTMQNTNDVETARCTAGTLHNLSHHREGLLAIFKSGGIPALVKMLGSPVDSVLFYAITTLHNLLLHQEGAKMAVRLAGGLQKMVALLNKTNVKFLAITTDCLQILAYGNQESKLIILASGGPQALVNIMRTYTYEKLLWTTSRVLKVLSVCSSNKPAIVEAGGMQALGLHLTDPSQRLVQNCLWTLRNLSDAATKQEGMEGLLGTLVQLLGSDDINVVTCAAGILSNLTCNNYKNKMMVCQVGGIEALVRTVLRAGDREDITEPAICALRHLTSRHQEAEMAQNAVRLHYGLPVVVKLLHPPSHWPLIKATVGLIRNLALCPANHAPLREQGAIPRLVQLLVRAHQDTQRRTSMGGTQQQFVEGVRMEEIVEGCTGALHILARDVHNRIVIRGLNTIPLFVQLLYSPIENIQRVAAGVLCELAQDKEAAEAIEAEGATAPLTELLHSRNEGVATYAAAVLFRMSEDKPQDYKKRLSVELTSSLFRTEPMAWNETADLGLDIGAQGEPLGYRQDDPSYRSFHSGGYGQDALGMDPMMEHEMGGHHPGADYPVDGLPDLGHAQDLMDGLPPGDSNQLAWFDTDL
Experiment: Fluorescence polarization IC50 (beta-catenin / 5FAM-TCF4 10-53 competition)
Assay type: binding
Conditions: fluorescence polarization; read-out: beta-Catenin FP IC50
Recorded IC50 for the following compounds

>  <compound>
CC(=O)N1CCC[C@]12CC=CCCCC1(CCCC=CCCCOC(=O)N3CC[C@@](C(=O)N[C@@H](Cc4ccccc4)C(=O)N[C@@H](Cc4csc5ccccc45)C(=O)N[C@@H](CCC(N)=O)C(N)=O)(C3)NC(=O)[C@H](CC(C)C)NC(=O)[C@H](Cc3ccccc3)NC(=O)[C@H](C)NC(=O)[C@H](CCCCNC(C)C)NC(=O)[C@H]([C@@H](C)O)NC(=O)[C@H](CC(=O)O)NC1=O)NC(=O)[C@H](CC(C)C)NC(=O)[C@H](CC(N)=O)NC2=O (stereo partly drawn) [I-1582]

>  <IC50 / nM>
1220

$$$$
>  <compound>
CC(=O)N1CCC[C@]12CC=CCCCC1(CCCC=CCCCCCC[C@@](C)(C(=O)N[C@@H](Cc3ccccc3)C(=O)N[C@@H](Cc3csc4ccccc34)C(=O)N[C@@H](CCC(N)=O)C(N)=O)NC(=O)[C@H](CCC(N)=O)NC(=O)[C@H](Cc3ccccc3)NC(=O)[C@H](C)NC(=O)[C@H](C)NC(=O)[C@H](CCC(=O)O)NC(=O)[C@H](CC(=O)O)NC1=O)NC(=O)[C@H](CC(C)C)NC(=O)[C@H](CC(=O)O)NC2=O (stereo partly drawn) [I-505]

>  <IC50 / nM>
23

$$$$
>  <compound>
CC(=O)N1CCC[C@]12CC=CCCCC1(CCCC=CCCCCCC[C@@](C)(C(=O)N[C@@H](Cc3ccsc3)C(=O)N[C@@H](Cc3csc4ccccc34)C(=O)N[C@@H](CCC(N)=O)C(N)=O)NC(=O)[C@H](CC(N)=O)NC(=O)[C@H](Cc3ccccc3)NC(=O)[C@H](C)NC(=O)[C@H](C)NC(=O)[C@H](CC(=O)O)NC(=O)[C@H](CC(=O)O)NC1=O)NC(=O)[C@H](CC(C)(C)C)NC(=O)[C@H](CC(=O)O)NC2=O (stereo partly drawn) [I-679]

>  <IC50 / nM>
7

$$$$

Just for reference, patent US20240116985A1 is where these values come from.
